test: qHTS of pediatric cancer cell lines to identify multiple opportunities for drug repurposing: Confirmatory screen for LAN-5 cells (AID 1347113); conditions: LAN-5 neuroblastoma cell viability; series mostly up to 45.9 µM; note: nearly all actives have a fitted effect of over 65% in size
Records with an inconclusive call do not appear. Calls of active or inactive are those of the source. Calls come from the whole dose curve; as a rule, active = well fitted cell-killing curve with a large enough effect; inconclusive = small, poorly fitted or top-dose-only effect, or effect the other way; inactive = no such curve, though single readings can be large or run the other way.
Tick one outcome: active, inactive

Previously resolved entries follow.
INSERT INTO assay_data (compound, category_label) VALUES
  ('CC(=O)O[C@@H]1C(=O)O[C@@H]2[C@H]1OC(=O)[C@@H]2OC(C)=O', 'inactive'),
  ('N=C(N)c1ccc(OCCCOc2ccc(C(=N)N)cc2)cc1', 'inactive'),
  ('CC(=O)OCC(=O)[C@@]1(O)CCC2C3CCC4=CC(=O)CC[C@]4(C)C3[C@@H](O)C[C@@]21C (some centres not stated)', 'inactive'),
  ('O=[N+]([O-])c1ccc(O)c2ncccc12', 'active'),
  ('C[C@]12CCC(=O)C=C1CC[C@@H]1[C@@H]2[C@@H](O)C[C@@]2(C)[C@H]1CC[C@]2(O)C(=O)COC(=O)CCC(=O)O', 'inactive');

Give the logged outcome of this assay for the following compound: CCC1(c2cnc[nH]2)Cc2ccccc2C1
inactive

Which result was noted for this compound in the test: C[C@H]1C[C@H]2[C@@H]3CCC4=CC(=O)C=C[C@]4(C)[C@H]3C(=O)C[C@]2(C)[C@@]1(O)C(=O)CO
active

Just curious, what result did CCOC(=O)O[C@]1(C(=O)OCCl)CC[C@H]2[C@@H]3CCC4=CC(=O)C=C[C@]4(C)[C@H]3[C@@H](O)C[C@@]21C get here?
inactive

What call does the record list for CCC1=C[C@@H]2CN(C1)Cc1c([nH]c3ccccc13)[C@@](C(=O)OC)(c1cc3c(cc1OC)N(C)[C@H]1[C@@](O)(C(=O)OC)[C@H](OC(C)=O)[C@]4(CC)C=CCN5CC[C@]31[C@@H]54)C2 ?
active

Returns: the outcome recorded for CN(C)CCN(Cc1ccsc1)c1ccccn1 in this assay.
inactive

What did this assay record as the result for CC(=O)OCC(=O)[C@@]1(O)[C@H](OC(C)=O)C[C@H]2[C@@H]3CCC4=CC(=O)C=C[C@]4(C)[C@@]3(F)[C@@H](O)C[C@@]21C ?
inactive

// param item: CCCCC(=O)OCC(=O)[C@H]1[C@H](C)C[C@H]2[C@@H]3C[C@H](F)C4=CC(=O)C=C[C@]4(C)[C@@]3(F)[C@@H](O)C[C@@]21C ; yields the recorded call
active

Returns: the outcome recorded for Nc1ccc2cc3ccc(N)cc3nc2c1 in this assay.
active

* * *

Assay: qHTS of pediatric cancer cell lines to identify multiple opportunities for drug repurposing: Primary screen for RD cells (AID 1347104); note: nearly all actives have a fitted effect of over 55% in size
Settings: RD rhabdomyosarcoma viability, CellTiter-Glo luminescence, 48 h; series mostly up to 46 µM
Procedure: Drug repurposing or repositioning has been offered as a strategy for drug development in oncology programs. This approach has special potential for childhood cancers and other rare or orphan diseases, where the expected return on new drug development has been a disincentive to pharmaceuticals. […] We employed a titration-based paradigm (quantitative high-throughput screening or qHTS), where all compounds were tested at multiple concentrations for their effect on cell viability. […]
Inconclusive results are not listed. Calls of active or inactive are those of the source. The call rests on the fitted dose curve; in most records, active means well fitted cell-killing curve with a large enough effect; inconclusive means small, poorly fitted or top-dose-only effect; inactive means flat fitted curve, though single readings scatter.
One label from this list, please: active, inactive

Use the examples below as a reference point.
INSERT INTO results (compound, category_label) VALUES
  ('Nc1nnnn1-c1ccccc1', 'inactive'),
  ('O=C(O)/C=C(\CC(=O)O)C(=O)O', 'inactive'),
  ('Nc1ccc2cc3ccc(N)cc3nc2c1', 'active');

Please turn your attention to the following entry.
Which outcome did this test record for the compound CCCc1ccc(OCC(=O)N2CCN(C(=O)COc3ccc(CCC)cc3OC)CC2)c(OC)c1 ?
inactive

Origin of the recorded values: PubChem BioAssay (NCATS)
